- assayed-target: 5'-AMP-activated protein kinase catalytic subunit alpha-2 (Homo sapiens)
- condition-parameters: at 0.1 µM
- Description: GSK_PKIS: AMPKA2 (A2B1G1) mean inhibition at 0.1 uM [Nanosyn]
parameter-measured: inhibition (%)

smiles-notation	parameter-measured	unit-name	recorded-result
N#Cc1c(NC(=O)c2ccc(F)cc2)sc2c1CCCC2	inhibition	%	0.31
CCc1nn2ncccc2c1-c1ccnc(NC2CC2)n1	inhibition	%	2.14
COc1cc2ncn(-c3cc(OCc4ccccc4C(F)(F)F)c(C(=O)N(C)C)s3)c2cc1OC	inhibition	%	-0.26
COc1ccc(-c2nn3ncccc3c2-c2ccnc(Nc3ccc4c(c3)OCCO4)n2)cc1	inhibition	%	0.54
c1ccc(COc2ccc(Nc3ncnc4ccc(-c5ccco5)cc34)cc2)cc1	inhibition	%	-2.52
CCN(CC)S(=O)(=O)c1ccc(OC)c(Nc2ncc(-c3ccccc3)o2)c1	inhibition	%	-5.76
CS(=O)(=O)CCNCc1coc(-c2ccc3ncnc(Nc4ccc(OCc5ccccc5)cc4)c3c2)c1	inhibition	%	3.81
Clc1ccc(-c2nn3ncccc3c2-c2ccnc(Nc3ccccc3)n2)cc1	inhibition	%	1.86
COC(=O)c1sc(-n2cnc3cc(OC)c(OC)cc32)cc1OCc1ccccc1C(F)(F)F	inhibition	%	-0.41
CC(=O)NCc1cccc(C#Cc2cncnc2Nc2ccc(OCc3cccc(F)c3)c(Cl)c2)c1	inhibition	%	2.22

====

Entries and their inhibition values follow.
- assayed-target: 5'-AMP-activated protein kinase catalytic subunit alpha-2 (Homo sapiens)
- condition-parameters: at 1 µM
- Description: GSK_PKIS: AMPKA2 (A2B1G1) mean inhibition at 1 uM [Nanosyn]

smiles-notation	inhibition [%]
Cc1cccc2c1NC(=O)/C2=N\Nc1ccc(S(N)(=O)=O)cc1	4.04
COc1ccc(CNC(=O)c2ccc(-c3cc(-c4nnc(C)o4)ccc3C)cc2)cc1	2.36
CCn1c(-c2nonc2N)nc2c(C#CC(C)(C)O)ncc(OC3CCNCC3)c21	43.3
CCn1c(-c2nonc2N)nc2c(C#CC(C)(C)O)nc(OC[C@H](N)c3ccccc3)cc21	15
CCc1nn2ncccc2c1-c1ccnc(NC2CC2)n1	2.42

====

inhibition: recorded values
- assayed-target: BDNF/NT-3 growth factors receptor (Homo sapiens);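 further: each value is a mean percent inhibition of TrkB kinase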
- condition-parameters: at 0.1 µM

smiles-notation	inhibition (%)
COc1ccc(-c2cc3c(N)ncnc3o2)cc1	-0.36
Fc1cccc(COc2ccc(Nc3ncnc4sc(-c5ccco5)cc34)cc2Cl)c1	3.36
Cc1cccc(Nc2ncc(-c3ccccc3)o2)c1	3.27
Nc1nc(-c2cccc(Cl)c2)c(-c2ccc3ncccc3n2)s1	2.86
CCc1nn2ncccc2c1-c1ccnc(NC2CC2)n1	-0.25
CN(C)CCOc1ccc(-c2nc(-c3ccncc3)c(-c3ccc4c(c3)CC/C4=N\O)[nH]2)cc1	1.83
COc1cccc(-n2ncc3c(N/N=C/c4ccc(F)cc4)ncnc32)c1	3.34
Fc1ccc(-c2nn3ncccc3c2-c2ccnc(Nc3ccc4c(c3)OCCO4)n2)cc1	4.94
CNC(=O)c1cccc(C#Cc2cncnc2Nc2ccc(OCc3cccc(F)c3)c(Cl)c2)c1	2.25
Cc1ccc(O)cc1Nc1ccnc2cc(-c3ccccn3)ccc12	1.78
CN1CCC(n2cnc(-c3ccc(F)cc3)c2-c2ccnc(N)n2)CC1	0.4

====

- assayed-target: Aurora kinase B (Homo sapiens) (UniProt Q96GD4);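 further: reported values are averaged percent inhibition of Aurora B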
- Sequence (Q96GD4 whole entry): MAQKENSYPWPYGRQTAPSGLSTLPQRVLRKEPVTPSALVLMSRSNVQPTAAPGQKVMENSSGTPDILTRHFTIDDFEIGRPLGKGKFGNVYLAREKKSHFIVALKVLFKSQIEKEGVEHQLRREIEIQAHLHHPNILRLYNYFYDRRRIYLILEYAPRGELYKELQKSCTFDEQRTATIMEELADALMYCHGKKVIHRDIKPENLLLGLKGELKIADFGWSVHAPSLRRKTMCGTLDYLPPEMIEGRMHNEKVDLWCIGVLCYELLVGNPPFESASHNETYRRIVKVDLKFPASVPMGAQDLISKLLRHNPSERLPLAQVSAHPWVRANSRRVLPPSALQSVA
- condition-parameters: at 0.1 µM
Catalogue of inhibition values

compound	inhibition / %
N#Cc1c(NC(=O)CN2CCOCC2)sc2c1CCCC2	4.66
Fc1ccc(-c2cc(-c3c[nH]nc3-c3ccccn3)ccn2)cc1	2.48
COc1cccc(-c2c[nH]c3c(N/N=C/c4ccncc4)ncnc23)c1	9.33
CCN(CC)S(=O)(=O)c1ccc(OC)c(Nc2ncc(-c3ccccc3)o2)c1	1.33
Nc1nc(-c2ccc(F)cc2)c(-c2ccc3ncccc3n2)s1	6.06
COc1ccc2c(-c3ccnc(Nc4cccc(OC(F)(F)F)c4)n3)cnn2n1	5.14
CCn1c(-c2nonc2N)nc2c(C#CC(C)(C)O)ncc(OC3CCNCC3)c21	2.65
CCN1CCC(CC(=O)Nc2n[nH]c3nnc(-c4cccc(F)c4F)cc23)CC1	0.22
CCCN(CCS(C)(=O)=O)Cc1ccc(-c2ccc3ncnc(Nc4ccc(OCc5cccc(F)c5)c(Cl)c4)c3c2)o1	3.11
CC(C)(CO)CNC(=O)c1ccc2c(c1)/C(=N/Nc1ccc(S(N)(=O)=O)cc1)C(=O)N2	0.26
CC1=C(C(=O)Nc2cc(Cl)c3[nH]ncc3c2)C(c2ccc(C(F)(F)F)cc2)CC(=O)N1 (stereo unspecified)	2.95
CS(=O)(=O)CCNCc1coc(-c2ccc3ncnc(Nc4ccc(OCc5ccccc5)cc4)c3c2)c1	1.47
COc1ccc(-c2cc3c(N)ncnc3o2)cc1	-0.85
Fc1cccc(COc2ccc(Nc3ncnc4sc(-c5ccco5)cc34)cc2Cl)c1	3.38
[O-][S+]1CCN(Cc2ccc(-c3ccc4ncnc(Nc5ccc(OCc6cccc(F)c6)c(Cl)c5)c4c3)o2)CC1	4.97
COc1cc(/C=N/Nc2ncnc3[nH]ncc23)ccc1O	9.45
CCn1c(-c2nonc2N)nc2ccccc21	0.55
NS(=O)(=O)c1ccc(Nc2ncc(-c3ccccc3)o2)cc1	5.18
CCn1c(-c2nonc2N)nc2cnc(Oc3cccc(NC(=O)c4ccc(N(C)C)cc4)c3)cc21	3.58
O=C(O[C@H]1CN[C@H](C#Cc2cc3ncnc(Nc4ccc(Cc5ccccc5)cc4)c3s2)C1)N1CCOCC1	1.27
CCc1nn2ncccc2c1-c1ccnc(NC2CC2)n1	2.59

From: ChEMBL document CHEMBL1961873
